Data origin: patent US9505749B2

- TGT: PARP2 (Homo sapiens (Human), UniProt Q9UGN5)
- Sequence (Q9UGN5 whole entry): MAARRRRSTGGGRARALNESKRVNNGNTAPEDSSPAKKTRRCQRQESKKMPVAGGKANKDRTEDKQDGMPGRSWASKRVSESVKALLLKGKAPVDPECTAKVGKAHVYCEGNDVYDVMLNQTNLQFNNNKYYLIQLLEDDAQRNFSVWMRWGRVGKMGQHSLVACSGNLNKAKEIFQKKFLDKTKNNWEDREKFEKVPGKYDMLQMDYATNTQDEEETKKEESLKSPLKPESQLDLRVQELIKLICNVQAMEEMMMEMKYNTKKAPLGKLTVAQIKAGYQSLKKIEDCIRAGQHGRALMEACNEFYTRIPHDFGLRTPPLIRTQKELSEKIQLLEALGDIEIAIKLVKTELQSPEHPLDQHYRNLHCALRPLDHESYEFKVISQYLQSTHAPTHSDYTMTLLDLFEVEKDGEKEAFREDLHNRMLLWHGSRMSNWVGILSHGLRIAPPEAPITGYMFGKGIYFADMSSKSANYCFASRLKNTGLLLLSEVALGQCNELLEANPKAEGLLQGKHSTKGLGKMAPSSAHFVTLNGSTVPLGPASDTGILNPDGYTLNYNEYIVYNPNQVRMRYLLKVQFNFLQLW
pIC50: −log10 of the molar value.
Entry flag: yes (1) if pIC50 reaches 6; no (0) if it does not.

COMPOUND: O=C(CCCc1nc2ccccc2c(=O)[nH]1)N[C@H]1CC[C@H](Oc2cccnc2)CC1 [Example 59]
QUALITATIVE_LABEL: yes (1)
--
COMPOUND: O=C(CCSc1nc2ccccc2c(=O)[nH]1)N[C@H]1C[C@@H](c2nnc(-c3ccccc3)o2)C1 [Example 39]
QUALITATIVE_LABEL: no (0)
--
COMPOUND: O=C(CCCc1nc2ccccc2c(=O)[nH]1)N1CCC(n2c(=O)[nH]c3cc(Cl)ccc32)CC1 [Example 27]
QUALITATIVE_LABEL: yes (1)
--
COMPOUND: O=C(CSc1nc2ccccc2c(=O)[nH]1)N[C@H]1CC[C@H](c2nnc(-c3ccccc3)o2)CC1 [Example 96]
QUALITATIVE_LABEL: no (0)
--
COMPOUND: O=C(CCc1nc2ccc(F)cc2c(=O)[nH]1)N[C@H]1CC[C@H](c2nnc(-c3ccccc3)o2)CC1 [Example 101]
QUALITATIVE_LABEL: yes (1)
--
COMPOUND: N#Cc1ccc(O[C@H]2CC[C@H](NC(=O)CCSc3nc4c(c(=O)[nH]3)CCCC4)CC2)cc1 [Example 116]
QUALITATIVE_LABEL: yes (1)
--
COMPOUND: O=c1[nH]c(CCNC(=O)[C@H]2CC[C@H](c3nnc(-c4ccccc4)o3)CC2)nc2ccccc12 [Example 1]
QUALITATIVE_LABEL: no (0)
--
COMPOUND: O=C(CSc1nc2ccccc2c(=O)[nH]1)N[C@H]1CC[C@H](n2c(=O)[nH]c3ccc(Cl)cc32)CC1 [Example 102]
QUALITATIVE_LABEL: no (0)
--
COMPOUND: COc1ccc(-c2nnc([C@H]3CC[C@H](NC(=O)CCSc4nc5ccccc5c(=O)[nH]4)CC3)o2)cc1 [Example 121]
QUALITATIVE_LABEL: no (0)
--
COMPOUND: O=C(CSc1nc2ccccc2c(=O)[nH]1)N1CCC(c2nnc(-c3ccccc3)o2)CC1 [Example 89]
QUALITATIVE_LABEL: yes (1)
